Measured pIC50 values are reported for all entries that follow.
ASSAYED TARGET: Receptor tyrosine-protein kinase erbB-2 (Homo sapiens, UniProt P04626)
Sequence (P04626 whole entry): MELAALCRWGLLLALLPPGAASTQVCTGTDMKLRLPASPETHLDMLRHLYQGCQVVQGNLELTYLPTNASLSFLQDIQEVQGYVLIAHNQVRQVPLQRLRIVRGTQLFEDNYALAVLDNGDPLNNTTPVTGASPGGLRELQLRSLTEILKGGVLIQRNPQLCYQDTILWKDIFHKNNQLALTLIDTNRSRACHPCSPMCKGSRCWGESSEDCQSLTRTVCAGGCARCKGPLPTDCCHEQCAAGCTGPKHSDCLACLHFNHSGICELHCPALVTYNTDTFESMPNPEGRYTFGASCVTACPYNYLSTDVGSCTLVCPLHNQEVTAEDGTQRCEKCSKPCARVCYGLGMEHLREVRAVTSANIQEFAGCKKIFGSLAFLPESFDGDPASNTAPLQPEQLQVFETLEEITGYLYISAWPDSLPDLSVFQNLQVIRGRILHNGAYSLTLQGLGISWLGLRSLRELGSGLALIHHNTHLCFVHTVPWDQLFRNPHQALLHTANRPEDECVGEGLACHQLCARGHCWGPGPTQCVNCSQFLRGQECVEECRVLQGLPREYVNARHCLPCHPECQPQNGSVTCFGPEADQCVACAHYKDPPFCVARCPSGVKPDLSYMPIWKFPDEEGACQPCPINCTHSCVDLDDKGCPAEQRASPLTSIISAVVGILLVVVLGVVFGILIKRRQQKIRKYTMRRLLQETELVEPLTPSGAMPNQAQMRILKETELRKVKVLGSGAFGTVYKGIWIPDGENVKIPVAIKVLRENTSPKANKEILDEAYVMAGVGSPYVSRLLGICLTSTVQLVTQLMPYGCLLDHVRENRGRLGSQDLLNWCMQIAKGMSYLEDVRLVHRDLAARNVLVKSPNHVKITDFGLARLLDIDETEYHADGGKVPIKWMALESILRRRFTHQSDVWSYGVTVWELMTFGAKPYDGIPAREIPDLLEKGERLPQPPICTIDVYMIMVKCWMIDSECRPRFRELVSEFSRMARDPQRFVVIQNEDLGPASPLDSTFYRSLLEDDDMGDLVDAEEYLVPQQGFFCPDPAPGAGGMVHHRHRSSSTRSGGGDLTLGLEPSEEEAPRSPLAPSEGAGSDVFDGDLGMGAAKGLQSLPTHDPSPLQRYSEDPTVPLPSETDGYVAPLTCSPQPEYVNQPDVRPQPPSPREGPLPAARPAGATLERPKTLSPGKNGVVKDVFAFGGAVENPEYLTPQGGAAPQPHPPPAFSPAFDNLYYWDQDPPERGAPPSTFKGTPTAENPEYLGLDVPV
PROTOCOL: Inhibition of erbB2 in NH3T3 cells
Type: cell-based
pIC50: −log10 of the molar value.
RESULT TYPE: pIC50

STRUCTURE AS SMILES	OPERATOR SYMBOL	ASSAY RESULT
COCCOc1ccc2ncnc(Nc3ccc(OC4CCN(C(=O)CC(C)(C)C)CC4)c(C)c3)c2c1	=	7.72
Cc1cc(Nc2ncnc3cnc(N4CCOCC4)cc23)ccc1OC1CCN(C(=O)CC(C)(C)C)CC1	>	8.00
COc1cc2ncnc(Nc3ccc(OC4CCN(C(=O)CC(C)(C)C)CC4)c(C)c3)c2cc1OC	=	7.12
CNc1cc2c(Nc3ccc(Oc4ccc(C(=O)NCC(C)(C)C)cc4)c(C)c3)ncnc2cn1	=	7.89
Cc1cc(Nc2ncnc3ccc(OCCCN4CCOCC4)cc23)ccc1OC1CCN(C(=O)Nc2c(F)cccc2F)CC1	=	7.26

Where these numbers come from: ChEMBL document CHEMBL1144645
